- Test system: NS5A chimeric genotype 2a JFH-1 replicon with genotype 2b MD2b-1 strain NS5A gene (M31 present)
- protocol-description: microbe, parasite or virus in culture
- Assay type: cell-based, HCV
- test-parameters: Hepatitis C virus, read-out: 2b (s) (nM)
This section presents compounds with their documented EC50 values.
Report as a plain number; the unit nM is understood.

COC(=O)N[C@H](C(=O)N1C[C@@H](C)C[C@H]1c1nc2ccc3cc4c(cc3c2[nH]1)OCc1cc(-c2cnc([C@@H]3C[C@H](C)CN3C(=O)[C@H](NC(=O)OC)c3ccccc3)[nH]2)ccc1-4)C(C)C	0.119
COC[C@H]1C[C@@H](c2nc3ccc4cc5c(cc4c3[nH]2)OCc2cc(-c3cnc([C@@H]4CCCN4C(=O)[C@H](NC(=O)C4CC4)c4ccccc4)[nH]3)ccc2-5)N(C(=O)[C@@H](NC(=O)OC)C(C)C)C1	0.02
COC(=O)N[C@H](C(=O)N1CCC[C@H]1c1ncc(-c2ccc3c(c2)COc2cc4c(cc2-3)CCc2[nH]c([C@@H]3CCCN3C(=O)[C@@H](NC(=O)OC)C(C)C)nc2-4)[nH]1)C(C)C	0.701

Here's the next entry for you.
Could you tell me which EC50 is on file for COC[C@H]1C[C@@H](c2nc3ccc4cc5c(cc4c3[nH]2)OCc2cc(-c3cnc([C@@H]4CC[C@H](C)N4C(=O)[C@@H](NC(=O)OC)C(C)C)[nH]3)ccc2-5)N(C(=O)[C@H](NC(=O)OC)c2ccccc2)C1 ?
0.043

====

- Tested on: stable HCV 1a RLuc replicon cells (genotype 1a H77 replicon)
- protocol-description: microbe, parasite or virus in culture
- Assay type: cell-based
- test-parameters: Hepatitis C virus, read-out: 1a
value-type: EC50

COC[C@H]1C[C@@H](c2nc3ccc4cc5c(cc4c3[nH]2)OCc2cc(-c3cnc([C@@H]4C[C@H](C)CN4C(=O)[C@@H](NC(=O)OC)[C@@H](C)OC)[nH]3)ccc2-5)N(C(=O)[C@@H](NC(=O)OC)[C@@H](C)OC)C1	< 1 nM

Here's the next entry for you.
Could you tell me which EC50 is on file for COC(=O)N[C@H](C(=O)N1CCC[C@H]1c1ncc(-c2ccc3c(c2)COc2cc4c(ccc5nc([C@@H]6C[C@H](C)CN6C(=O)[C@@H](NC(=O)OC)C(C)C)[nH]c54)cc2-3)[nH]1)C(C)C ?
< 1 nM

====

- Test system: 1a Pi-Rluc replicon with Q30R in genotype 1a NS5A
- protocol-description: microbe, parasite or virus in culture
- Assay type: cell-based, HCV
- test-parameters: Hepatitis C virus, read-out: 1a Q30R (nM)
# label = yes if EC50 < 0.03 nM else no

Please review the entries below; each comes with its answer.
COC[C@H]1C[C@@H](c2nc3c([nH]2)-c2cc4c(cc2CC3)-c2ccc(-c3cnc([C@@H]5CC[C@H](C)N5C(=O)[C@@H](NC(=O)OC)C(C)C)[nH]3)cc2CO4)N(C(=O)[C@H](NC(=O)OC)c2ccccc2)C1 [Example OP]	yes
COC(=O)N[C@H](C(=O)N1CCC[C@H]1c1nc2c([nH]1)-c1cc3c(cc1CC2)-c1ccc(-c2cnc([C@@H]4CCCN4C(=O)[C@H](NC(=O)C4CC4)c4ccccc4)[nH]2)cc1CO3)C(C)C [Compound 494]	no
COC(=O)N[C@H](C(=O)N1[C@@H](C)CC[C@H]1c1ncc(-c2ccc3c(c2)COc2cc4c(ccc5nc([C@@H]6CCCN6C(=O)[C@H](NC(=O)OC)c6ccccc6)[nH]c54)cc2-3)[nH]1)C(C)C [Example NQ]	no
COC[C@H]1C[C@@H](c2ncc(-c3ccc4c(c3)COc3cc5c(ccc6nc([C@@H]7CCCN7C(=O)[C@@H](NC(=O)OC)C(C)C)[nH]c65)cc3-4)[nH]2)N(C(=O)[C@H](NC(=O)OC)c2ccccc2)C1 [Example MU]	yes
COC[C@H]1C[C@@H](c2nc3ccc4cc5c(cc4c3[nH]2)OCc2cc(-c3cnc([C@@H]4C[C@H](C)CN4C(=O)[C@@H](NC(=O)OC)C(C)C)[nH]3)ccc2-5)N(C(=O)[C@H](NC(=O)OC)c2ccccc2)C1 [Example MN]	yes
COC(=O)N[C@H](C(=O)N1CCC[C@H]1c1ncc(-c2ccc3c(c2)COc2cc4c(ccc5nc([C@@H]6C[C@H](C)CN6C(=O)[C@H](NC(=O)OC)c6ccccc6)[nH]c54)cc2-3)[nH]1)C(C)C [Example MY]	yes
COC[C@H]1C[C@@H](c2nc3ccc4cc5c(cc4c3[nH]2)OCc2cc(-c3cnc([C@@H]4CCCN4C(=O)[C@@H](NC(=O)OC)C(C)C)[nH]3)ccc2-5)N(C(=O)[C@@H](NC(=O)OC)C(C)C)C1 [Compound 495]	no
COC(=O)N[C@H](C(=O)N1C[C@@H](C)C[C@H]1c1ncc(-c2ccc3c(c2)COc2cc4c(ccc5nc([C@@H]6C[C@H](C)CN6C(=O)[C@H](NC(=O)OC)c6ccccc6)[nH]c54)cc2-3)[nH]1)C(C)C [Example NF]	yes
CC[C@H](C)[C@H](NC(=O)OC)C(=O)N1C[C@@H](COC)C[C@H]1c1nc2ccc3cc4c(cc3c2[nH]1)OCc1cc(-c2cnc([C@@H]3CC[C@H](C)N3C(=O)[C@@H](NC(=O)OC)[C@@H](C)CC)[nH]2)ccc1-4 [Example NJ]	yes
COC(=O)N[C@H](C(=O)N1[C@@H](C)CC[C@H]1c1ncc(-c2ccc3c(c2)COc2cc4c(ccc5nc([C@@H]6C[C@H](C)CN6C(=O)[C@H](NC(=O)OC)c6ccccc6)[nH]c54)cc2-3)[nH]1)C(C)C [Compound 617]	yes

Is the reported EC50 for COC[C@H]1C[C@@H](c2nc3ccc4cc5c(cc4c3[nH]2)OCc2cc(-c3cnc([C@@H]4CC[C@H](C)N4C(=O)[C@@H](NC(=O)OC)C(C)C)[nH]3)ccc2-5)N(C(=O)[C@@H](NC(=O)OC)C(C)C)C1 [Example MP] strictly below 0.03 nM?
no

Check COC(=O)N[C@H](C(=O)N1[C@@H](C)CC[C@H]1c1nc2ccc3cc4c(cc3c2[nH]1)OCc1cc(-c2cnc([C@@H]3C[C@H](C)CN3C(=O)[C@@H](NC(=O)OC)[C@@H](C)OC)[nH]2)ccc1-4)C(C)C [Example QH] too.
no

Check COC(=O)N[C@H](C(=O)N1CCC[C@H]1c1ncc(-c2ccc3c(c2)COc2cc4c(cc2-3)CCc2[nH]c([C@@H]3CCCN3C(=O)[C@@H](NC(=O)OC)C(C)C)nc2-4)[nH]1)C(C)C [Example ME] too.
no

Check COC(=O)N[C@H](C(=O)N1C[C@@H](C)C[C@H]1c1nc2ccc3cc4c(cc3c2[nH]1)OCc1cc(-c2cnc([C@@H]3CCCN3C(=O)[C@H](NC(=O)OC)c3ccccc3)[nH]2)ccc1-4)C(C)C [Example NB] too.
no

Check COC(=O)N[C@H](C(=O)N1CCC[C@H]1c1ncc(-c2ccc3c(c2)COc2cc4c(ccc5nc([C@@H]6CCCN6C(=O)[C@H](NC(=O)OC)c6ccccc6)[nH]c54)cc2-3)[nH]1)[C@@H](C)OC [Compound 588] too.
no

Check COC[C@H]1C[C@@H](c2nc3ccc4cc5c(cc4c3[nH]2)OCc2cc(-c3cnc([C@@H]4CCCN4C(=O)[C@@H](NC(=O)OC)C(C)C)[nH]3)ccc2-5)N(C(=O)[C@H](NC(=O)OC)c2ccccc2)C1 [Example LR-1] too.
yes

Check COC[C@H]1C[C@@H](c2ncc(-c3ccc4c(c3)COc3cc5c(ccc6nc([C@@H]7C[C@@H]8C[C@@H]8N7C(=O)[C@@H](NC(=O)OC)C(C)C)[nH]c65)cc3-4)[nH]2)N(C(=O)[C@H](NC(=O)OC)c2ccccc2)C1 [Example OV] too.
no

====

- System: NS5A chimeric genotype 2a JFH-1 replicon with genotype 2b MD2b-1 strain NS5A gene (M31 present)
- protocol-description: microbe, parasite or virus in culture
- Assay type: cell-based, HCV
- test-parameters: Hepatitis C virus, read-out: 2b (s) (nM)
value-type: EC50 (nM)
Report as a plain number; the unit nM is understood.

In the examples that follow, each entry is paired with its recorded EC50.
COC(=O)N[C@H](C(=O)N1[C@@H](C)CC[C@H]1c1ncc(-c2ccc3c(c2)COc2cc4c(ccc5nc([C@@H]6CCCN6C(=O)[C@H](N)c6ccccc6)[nH]c54)cc2-3)[nH]1)C(C)C	0.017
COC(=O)N[C@H](C(=O)N1CCC[C@H]1c1nc2c(ccc3cc4c(cc32)OCc2cc(-c3cnc([C@@H]5CCCN5C(=O)[C@H](NC(=O)OC)c5ccccc5)[nH]3)ccc2-4)[nH]1)C(C)C	0.038

Could you tell me which EC50 is on file for COC[C@H]1C[C@@H](c2nc3ccc4cc5c(cc4c3[nH]2)OCc2cc(-c3cnc([C@@H]4CCCN4C(=O)[C@H](NC(=O)OC)c4ccccc4)[nH]3)ccc2-5)N(C(=O)[C@@H](NC(=O)OC)C(C)C)C1 ?
0.042

Data provenance: patent US8575135B2
